- Test system: HOP-62 NSCLC
- EXPERIMENT_NOTES: NCI-60 one-dose screen, 48 h (100 = growth as untreated, 0 = no growth, -100 = all killed)
- CONDITION_SET: 10 µM unless noted
This is part of a sample that, as a whole, favours compounds with a hit. Of some 83,000 tested, about 20% had one in any assay.
MEASUREMENT_LABEL: growth (%)
Lab book: enter the figure in %, no units written.

Asked: Any idea what its growth is? The compound is O=C1CC(=O)N(c2ccccc2)O1
Given back: 92.3

Asked: So what does the record say about growth for C/C(=C\CCc1ccoc1)CC/C=C(\C)CCCN1CCC(CO)CC1 ?
Given back: 83

Asked: If you can, please state the reported growth value of COc1ccc2c(c1)C(=O)/C(=C/c1ccc([N+](=O)[O-])s1)O2 .
Given back: 35.2

====

- System: MCF7 breast
- EXPERIMENT_NOTES: NCI-60 one-dose screen, 48 h (100 = growth as untreated, 0 = no growth, -100 = all killed)
- CONDITION_SET: 10 µM unless noted
Compounds without any hit were thinned out: in the full panel of roughly 83,000, 20% have a hit.
MEASUREMENT_LABEL: growth (%)
// note: answer is a bare numeric in %

Asked: For the compound N#Cc1ccc(NC(=O)Nc2ccc(Oc3ccc(NC(=O)Nc4ccc(C#N)cc4)cc3)cc2)cc1 , what growth is on record?
Given back: 20.5

Asked: I am curious: what growth value has been reported for CC(c1ccccn1)C(C)(O)C(C)c1ccccn1 (stereo not given) ?
Given back: 103

Asked: Recorded growth for COc1ccc2c(c1)C(=O)c1c-2c(OCCCN(C)C)nc2cc(Br)ccc12 , please?
Given back: 18.5

Asked: What value of measured growth is listed for COc1cc(/C=C2\COc3ccc(O)cc3C2=O)cc(OC)c1 ?
Given back: 8.22

Asked: I'd like to know its growth. The compound in question is COc1ccccc1[C@H]1c2[nH]c3ccccc3c2C[C@H]2C(=O)N(CCCCCCC(=O)NO)CC(=O)N12
Given back: 37.7

====

- System: SK-OV-3 ovarian
- EXPERIMENT_NOTES: NCI-60 one-dose screen, 48 h
- CONDITION_SET: 10 µM unless noted
The panel holds about 83,000 compounds, 20% with a hit somewhere; the sample as a whole holds those more often. Calls of active or inactive are those of the source. Rule for the calls: active = growth percent below 10; inactive = the rest.
Write down the outcome that applies. Available outcomes: active, inactive

Asked: Fill in: this test's call for Cc1cc(O)c2c(c1)C[C@H]1[C@@H]3CC[C@H]4CC(=O)CC[C@]4(C)[C@H]3CC(=O)[C@]21C is ___
Given back: inactive

Asked: What did the test return for COc1ccc(C(=O)/C=C/c2c(Cl)nc3c(c(C)nn3-c3ccccc3)c2-c2ccc(Br)cc2)cc1 ?
Given back: inactive

Asked: For this compound, state the assay outcome: COC(=O)c1ccc2c(c1)nc(-c1ccc(O)c(OC)c1)n2-c1cc(C(C)(C)C)[nH]n1
Given back: inactive

Asked: Could you please tell me the result logged for COc1ccc(OC)c(NC(=O)c2cc3oc4ccccc4c3cc2O)c1 in this assay?
Given back: inactive

Asked: GET /call?item= CCCCC(C#N)C(N)=O (stereo not given) returns the recorded outcome of this test.
Given back: inactive

Asked: What did the test return for COC(=O)[C@]12CC[C@@H](C)[C@H](C)[C@@H]1C1=CC[C@@H]3[C@@]4(C)C=C(O)C(=O)[C@@]5(C)COC(=C54)C[C@@]3(C)[C@]1(C)CC2 ?
Given back: active

Asked: State the result this test recorded for CCS(=O)(=O)OCCCl .
Given back: inactive

Asked: Each compound tested received a call. Report the one for COc1ccc(Nc2ccnc(NCCCNc3ccnc4cc(Cl)ccc34)n2)cc1 .
Given back: active

Asked: Tell me the recorded outcome of this test for COc1ccc(/C=C/C(=O)Nc2cccnc2Nc2ccc(F)cc2)cc1 .
Given back: inactive

Asked: Answer briefly: the call reported for O=c1cc(-c2cccnc2)oc2c1ccc1ccccc12 in this assay.
Given back: inactive

====

- Test system: NCI-H226 lung
- EXPERIMENT_NOTES: NCI-60 one-dose screen, 48 h (100 = growth as untreated, 0 = no growth, -100 = all killed)
- CONDITION_SET: 10 µM unless noted
This is part of a sample that, as a whole, favours compounds with a hit. Of some 83,000 tested, about 20% had one in any assay. Active and inactive are the calls of the source. How the source made its calls: active means growth percent below 10; inactive means the rest.
Reported growth values for the following compounds.

Some entries whose results are on file:
| COMPOUND | MEASUREMENT_LABEL | DATA_VALUE |
| --- | --- | --- |
| COc1cc2cn3c4ccc(O)cc4nc(N)c3c2cc1OC | growth | 25.7% (inactive) |
| C[C@]12CC[C@@H]3c4ccc(O)c([N+](=O)[O-])c4CC[C@H]3[C@@H]1CC[C@@H]2NS(=O)(=O)c1cccc(Br)c1 | growth | 62.4% (inactive) |
| Clc1cc(Cl)c(OCC#CI)cc1Cl | growth | 43.1% (inactive) |
| Cc1cc2cn3c4cccnc4[nH]c(=O)c3c2cc1C | growth | 90.3% (inactive) |
| CCCn1cnc2c1c(=O)n(CCCCC(C)=O)c(=O)n2C | growth | 100% (inactive) |

Note: attention shifts to another entry.
Asked: Could you share which growth value was measured for Cc1scc2c1N(C(=O)CN1CCN(C)CC1)c1ccccc1NC2=O ?
Given back: 109% (inactive)

====

Listed next: entries and their corresponding growth.
- Test system: SF-268 CNS
- EXPERIMENT_NOTES: NCI-60 one-dose screen, 48 h (100 = growth as untreated, 0 = no growth, -100 = all killed)
- CONDITION_SET: 10 µM unless noted
About 83,000 compounds went through this panel and 20% of them were active in at least one assay; those are over-represented in the sample as a whole.
Note: unit % is implicit; provide only the numeric part.

Answered cases to consult:
| COMPOUND | MEASUREMENT_LABEL | DATA_VALUE |
| --- | --- | --- |
| Clc1ccc(CCC(Cn2ccnc2)Sc2c(Cl)cccc2Cl)cc1 (stereo unspecified) | growth | 87.1 |
| COc1ccc(/C=N/NC(=O)c2ccc(S(C)(=O)=O)cc2)cc1OC | growth | 102 |
| C[C@]12C[C@H](O)[C@H]3[C@@H](CCC4=CC(=O)CC[C@@]43C)[C@@H]1CC[C@@H]2C(=O)CO | growth | 98.8 |
| O=C(c1nn(-c2ccc(Cl)cc2)cc1O)n1nc(C(F)(F)F)cc1-c1ccccc1 | growth | 42.3 |
| Cc1cc(C)c(OC(=O)CSc2nc3ccccc3c(=O)n2CCc2ccccc2)cc1C | growth | 97.1 |
| CC(=O)NC1(C(=O)O)CCCC1 | growth | 111 |
| COc1ccc(-c2cn(-c3ccccc3)c(-c3ccccc3)n2)cc1OC | growth | 47.9 |
| CN(C)c1ccc2c(c1)/C(=N/O)c1ccccc1-2 | growth | 78.3 |
| O=C(/C=C/c1cccnc1)NCCCCC1CCCN(C(=O)c2ccccc2)C1 (stereo unspecified) | growth | 74 |
| COc1cc(/C=C/C(=O)c2c(-c3ccc(Cl)cc3)nc3sc(C)nn23)cc(OC)c1OC | growth | 88.6 |

Kindly consider the entry below.
Asked: Which growth is listed for O=C(c1ccccc1)c1ccco1 ?
Given back: 98.5

====

- Test system: SNB-75 CNS
- EXPERIMENT_NOTES: NCI-60 one-dose screen, 48 h
- CONDITION_SET: 10 µM unless noted
This is part of a sample that, as a whole, favours compounds with a hit. Of some 83,000 tested, about 20% had one in any assay. Calls of active or inactive are those of the source. Rule for the calls: active = growth percent below 10; inactive = the rest.
Reply using exactly one outcome from active, inactive

Check out these entries, answers already filled in.
| CHEMICAL_STRUCTURE | LABEL_CLASS |
| --- | --- |
| Clc1cc(Cl)c(OCC#CI)cc1Cl | inactive |
| O=Nc1ccc(O)c(=O)cc1 | inactive |
| O=c1c(O)cccn1CCCNCCCN(CCCn1cccc(O)c1=O)CCCn1cccc(O)c1=O | inactive |
| COc1cc(/C=C2\COc3ccc(O)c(O)c3C2=O)cc(OC)c1 | inactive |
| O=C(Nc1ccc(Cl)cc1)Nc1ccc(Oc2nncc3ccccc23)cc1 | active |

Read the next record carefully.
Asked: How was CCN(CC)CCOc1ccccc1-n1c(C)ccc1-c1ccccc1 classified in this test?
Given back: inactive

====

- Test system: A549/ATCC NSCLC
- EXPERIMENT_NOTES: NCI-60 one-dose screen, 48 h (100 = growth as untreated, 0 = no growth, -100 = all killed)
- CONDITION_SET: 10 µM unless noted
This is part of a sample that, as a whole, favours compounds with a hit. Of some 83,000 tested, about 20% had one in any assay.
MEASUREMENT_LABEL: growth (%)
// units = %; emit number, no label

Reference set, count: 8
| COMPOUND | ASSAYED_SYSTEM | MEASUREMENT_LABEL | DATA_VALUE |
| --- | --- | --- | --- |
| O=C1C(=O)c2ccc(Br)cc2-c2cc(Br)ccc21 | A549/ATCC NSCLC | growth | 89.7 |
| Nc1ccc2c(c1)/C(=N/O)c1cc([N+](=O)[O-])ccc1-2 | A549/ATCC NSCLC | growth | 49.2 |
| Cc1cc(C)n2nc(SCC(=O)Nc3sc4c(c3C(N)=O)CCC4)nc2n1 | A549/ATCC NSCLC | growth | 146 |
| CC(CCC(=O)O)(NC(=O)c1ccc([N+](=O)[O-])cc1)C(=O)O (configuration not stated) | A549/ATCC NSCLC | growth | 107 |
| O=C(/C=C/c1cc2ccccc2[nH]c1=O)c1ccc(Cl)cc1 | A549/ATCC NSCLC | growth | 42.1 |
| Cc1cc(NC(=O)Nc2cc(Cl)ccc2C)no1 | A549/ATCC NSCLC | growth | 108 |
| N#CCCN(CCO)c1ccccc1 | A549/ATCC NSCLC | growth | 98.9 |
| O=[N+]([O-])c1ccc(N/N=C\c2ccccc2[N+](=O)[O-])nc1 | A549/ATCC NSCLC | growth | 92.2 |

Asked: # growth lookup, item CCOc1cccc(C2CC(=O)Nc3cc4c(cc32)OCO4)c1 (configuration not stated)
Given back: 94.2

Asked: Recorded growth for CN(C(=O)c1ccccc1)N(C)C(=O)c1ccccc1 , please?
Given back: 103

Asked: Query: growth; subject: CN1COc2ccc3ccccc3c2C1
Given back: 97.4

Asked: Return reported growth; argument: C=C(C)[C@H]1CC/C(C)=C/CC[C@]2(C)O[C@H]2CC/C(COC(C)=O)=C\C1=O
Given back: 37.7

Asked: Sample CCOC(=O)c1ccccc1OC(=O)NNc1ccccc1 — what was its growth?
Given back: 74.1

Asked: What does the data say about its growth? Entry: CCCCCCCCCCCCCCCCN=C(CC(=O)O)C(=O)O
Given back: 96.1

Asked: Name the recorded growth for Cc1ccc(C(C)C)cc1NC(=O)Nc1ccc([N+](=O)[O-])cc1 .
Given back: 9.96

Asked: Look up growth: COc1cc(C2=NN(C(C)=O)C(c3ccc(OC(C)=O)cc3OC(C)=O)O2)c(OC(C)=O)c2ccccc12 (configuration not stated)
Given back: 8

Asked: Find the recorded growth belonging to COC(=O)c1ccc2c(c1)nc(-c1ccc(O)c(OC)c1)n2-c1cc(C(C)(C)C)[nH]n1 and report it.
Given back: 87.9

Asked: Fill blank: measured growth of the compound Clc1ccc(CCC(Cn2ccnc2)Sc2c(Cl)cccc2Cl)cc1 (configuration not stated) is ____.
Given back: 61.2

Attribution: PubChem BioAssay (NCI)
